Origin of the recorded values: the supplement of paper PMC11061612

System: OACM5-1 (Esophageal Adenocarcinoma)
Test: Bliss excess, mean over the matrix (fraction); higher = more synergy
Metric name: Bliss excess
One number for each entry.

CC1(C)CCC(CN2CCN(c3ccc(C(=O)NS(=O)(=O)c4ccc(NCC5CCOCC5)c([N+](=O)[O-])c4)c(Oc4cnc5[nH]ccc5c4)c3)CC2)=C(c2ccc(Cl)cc2)C1 [Venetoclax] + COc1cc(Nc2ncc3c(n2)-c2ccc(Cl)cc2C(c2c(F)cccc2OC)=NC3)ccc1C(=O)O [Alisertib] (first compound max 1 µM, 7x7, partner max 10 µM) : 0.0758

The record that follows has no Bliss excess shown yet.
Which Bliss excess value is on record for Cc1nc(Nc2ncc(C(=O)Nc3c(C)cccc3Cl)s2)cc(N2CCN(CCO)CC2)n1 [Dasatinib] + CC(=O)Nc1cccc(-n2c(=O)n(C3CC3)c(=O)c3c(Nc4ccc(I)cc4F)n(C)c(=O)c(C)c32)c1 [Trametinib] (first compound max 2 µM, 7x7, partner max 1 µM) ?
-0.0912

###

Test system: MOLT-4 (T-Lymphoblastic Leukemia)
Experiment: combination Emax (second highest fraction inhibited in the dose matrix, 72 h); higher = more inhibition; extreme values may be limits of the assay
Hi there, I'd appreciate the recorded combination Emax for every entry that follows.

Illustrative cases are given below, each with its answer.
NC1(C(=O)N[C@@H](CCO)c2ccc(Cl)cc2)CCN(c2ncnc3[nH]ccc23)CC1 [Capivasertib] + CC(=O)c1c(C)c2cnc(Nc3ccc(N4CCNCC4)cn3)nc2n(C2CCCC2)c1=O [Palbociclib] (first compound max 10 µM, 7x7, partner max 10 µM) : 0.736
COc1nnc2ccc(N3CCC(c4ccc(OCCN5CCN(C)C(=O)[C@H]5C)cc4)CC3)nn12 [AZD5153] + CC1(C)CCC(CN2CCN(c3ccc(C(=O)NS(=O)(=O)c4ccc(NCC5CCOCC5)c([N+](=O)[O-])c4)c(Oc4cnc5[nH]ccc5c4)c3)CC2)=C(c2ccc(Cl)cc2)C1 [Venetoclax] (first compound max 1 µM, 7x7, partner max 1 µM) : 0.425

Notebook entry, MOLT-4 (T-Lymphoblastic Leukemia) assay: combination Emax of CS(=O)(=O)CCNCc1ccc(-c2ccc3ncnc(Nc4ccc(OCc5cccc(F)c5)c(Cl)c4)c3c2)o1 [Lapatinib] + C[C@@H](Oc1cc(-c2cnn(C3CCNCC3)c2)cnc1N)c1c(Cl)ccc(F)c1Cl [Crizotinib] (first compound max 10 µM, 7x7, partner max 10 µM) = ?
0.966

###

Tested on: MV-4-11 (Acute Myeloid Leukemia)
Experiment: Bliss excess, mean over the matrix (fraction); higher = more synergy
Metric name: Bliss excess

These recorded examples may help you get a feel for the data.
Cc1cc2ncnn2cc1Nc1ncc2c(n1)n(C1CCOCC1)c(=O)n2C [AZD7648] + C=CCn1c(=O)c2cnc(Nc3ccc(N4CCN(C)CC4)cc3)nc2n1-c1cccc(C(C)(C)O)n1 [AZD1775] (first compound max 10 µM, partner max 1 µM) : 0.053
Cc1c2c(nn1C)CSCc1cc(n(C)n1)CSc1cc(c3ccccc3c1)OCCCc1c(C(=O)O)n(C)c3c-2c(Cl)ccc13 [AZD5991] + C[C@@H](Nc1cc(F)cc(F)c1)c1cc(C(=O)N(C)C)cc2c(=O)cc(N3CCOCC3)oc12 [AZD8186] (first compound max 1 µM, 7x7, partner max 3 µM) : 0.0375
Cc1c2c(nn1C)CSCc1cc(n(C)n1)CSc1cc(c3ccccc3c1)OCCCc1c(C(=O)O)n(C)c3c-2c(Cl)ccc13 [AZD5991] + CS(=O)(=O)CCNCc1ccc(-c2ccc3ncnc(Nc4ccc(OCc5cccc(F)c5)c(Cl)c4)c3c2)o1 [Lapatinib] (first compound max 1 µM, 7x7, partner max 10 µM) : 0.0343

Attention now turns to another entry.
Bliss excess lookup needed for Cc1c2c(nn1C)CSCc1cc(n(C)n1)CSc1cc(c3ccccc3c1)OCCCc1c(C(=O)O)n(C)c3c-2c(Cl)ccc13 [AZD5991] + C=CCn1c(=O)c2cnc(Nc3ccc(N4CCN(C)CC4)cc3)nc2n1-c1cccc(C(C)(C)O)n1 [AZD1775] (first compound max 1 µM, partner max 1 µM) , thanks.
-0.0407

###

Field: combination Emax. Provide a value for each of the compounds that follow.
System: MV-4-11 (Acute Myeloid Leukemia)
Test: combination Emax (second highest fraction inhibited in the dose matrix, 72 h); higher = more inhibition; extreme values may be limits of the assay
Numbers only.

COc1nnc2ccc(N3CCC(c4ccc(OCCN5CCN(C)C(=O)[C@H]5C)cc4)CC3)nn12 [AZD5153] + CC1(C)CCC(CN2CCN(c3ccc(C(=O)NS(=O)(=O)c4ccc(NCC5CCOCC5)c([N+](=O)[O-])c4)c(Oc4cnc5[nH]ccc5c4)c3)CC2)=C(c2ccc(Cl)cc2)C1 [Venetoclax] (first compound max 1 µM, 7x7, partner max 1 µM) : 1

Could you tell me combination Emax for each of these compounds? They are listed below.
1. NC1(C(=O)N[C@@H](CCO)c2ccc(Cl)cc2)CCN(c2ncnc3[nH]ccc23)CC1 [Capivasertib] + COc1nnc2ccc(N3CCC(c4ccc(OCCN5CCN(C)C(=O)[C@H]5C)cc4)CC3)nn12 [AZD5153] (first compound max 10 µM, 7x7, partner max 1 µM)
2. Cc1nc(Nc2ncc(C(=O)Nc3c(C)cccc3Cl)s2)cc(N2CCN(CCO)CC2)n1 [Dasatinib] + CC(=O)Nc1cccc(-n2c(=O)n(C3CC3)c(=O)c3c(Nc4ccc(I)cc4F)n(C)c(=O)c(C)c32)c1 [Trametinib] (first compound max 2 µM, 7x7, partner max 1 µM)

[1, 0.791]

###

For each record, write down the corresponding Bliss excess.
Test system: NCI-H2122 (Lung Adenocarcinoma)
Assay: Bliss excess, mean over the matrix (fraction); higher = more synergy

CN(CCO)CC[C@H](CSc1ccccc1)Nc1ccc(S(=O)(=O)NC(=O)c2ccc(N3CCC([C@@H](O)c4ccccc4-c4ccc(Cl)cc4)CC3)cc2)cc1S(=O)(=O)C(F)(F)F [AZD4320] + C1CN(CCC1(C(=O)N[C@@H](CCO)C2=CC=C(C=C2)Cl)N)C3=NC=NC4=C3C=CN4 [Capivasertib] (first compound max 1 µM, 7x7, partner max 3 µM) : -0.0234

# next molecule below
Please state recorded Bliss excess (tested on NCI-H2122 (Lung Adenocarcinoma)) of CN(C)CCCOc1ccc(-c2ccc3ncc4c(c3c2)n(C2CCOCC2)c(=O)n4C)cn1 [AZD0156] + C=CCn1c(=O)c2cnc(Nc3ccc(N4CCN(C)CC4)cc3)nc2n1-c1cccc(C(C)(C)O)n1 [AZD1775] (first compound max 1 µM, partner max 1 µM)
0.0551

###

Test system: Hey (Ovarian Carcinoma)
Assay: combination Emax (second highest fraction inhibited in the dose matrix, 72 h); higher = more inhibition; extreme values may be limits of the assay
Assignment: determine reported combination Emax for the given compounds.
Numbers only.

CN(C)CCCOc1ccc(-c2ccc3ncc4c(c3c2)n(C2CCOCC2)c(=O)n4C)cn1 [AZD0156] + C[C@@H]1COCCN1C2=NC(=NC(=C2)C3(CC3)[S@](=N)(=O)C)C4=C5C=CNC5=NC=C4 [AZD6738] (first compound max 1 µM, 7x7, partner max 10 µM) : 0.84

Let us move to another entry and its combination Emax.
Item Cn1cnc2c(F)c(Nc3ccc(Br)cc3Cl)c(C(=O)NOCCO)cc21 [Selumetinib] + C[C@@H]1COCCN1C2=NC(=NC(=C2)C3(CC3)[S@](=N)(=O)C)C4=C5C=CNC5=NC=C4 [AZD6738] (first compound max 10 µM, 7x7, partner max 10 µM) has what recorded combination Emax?
0.748

###

Tested on: Hey (Ovarian Carcinoma)
Assay: combination Emax (second highest fraction inhibited in the dose matrix, 72 h); higher = more inhibition; extreme values may be limits of the assay
Exercise: state measured combination Emax for each of the molecules provided.
Give bare numbers.

Cc1cc2ncnn2cc1Nc1ncc2c(n1)n(C1CCOCC1)c(=O)n2C [AZD7648] + CCN(CCO)CCCOc1ccc2c(Nc3cc(CC(=O)Nc4cccc(F)c4)[nH]n3)ncnc2c1 [AZD2811] (first compound max 10 µM, 7x7, partner max 1 µM) : 0.41

Alright, here's another molecule for you.
Data request, read-out combination Emax, for NC1(C(=O)N[C@@H](CCO)c2ccc(Cl)cc2)CCN(c2ncnc3[nH]ccc23)CC1 [Capivasertib] + CC(=O)c1c(C)c2cnc(Nc3ccc(N4CCNCC4)cn3)nc2n(C2CCCC2)c1=O [Palbociclib] (first compound max 10 µM, 7x7, partner max 10 µM)
0.578

###

Tested on: MOLT-4 (T-Lymphoblastic Leukemia)
Assay: combination Emax (second highest fraction inhibited in the dose matrix, 72 h); higher = more inhibition; extreme values may be limits of the assay
Metric name: combination Emax

COc1cccc(OCCCN)c1-c1cc(Nc2cnc(C#N)cn2)n[nH]1 [Prexasertib] + CCc1c2c(nc3ccc(O)cc13)-c1cc3c(c(=O)n1C2)COC(=O)[C@]3(O)CC [SN-38] (first compound max 1 µM, 7x7, partner max 0.3 µM) : 1

Below is a list of molecules. For each, state its recorded combination Emax.
1. CN(CCO)CC[C@H](CSc1ccccc1)Nc1ccc(S(=O)(=O)NC(=O)c2ccc(N3CCC([C@@H](O)c4ccccc4-c4ccc(Cl)cc4)CC3)cc2)cc1S(=O)(=O)C(F)(F)F [AZD4320] + C1CN(CCC1(C(=O)N[C@@H](CCO)C2=CC=C(C=C2)Cl)N)C3=NC=NC4=C3C=CN4 [Capivasertib] (first compound max 1 µM, 7x7, partner max 3 µM)
2. Cc1c2c(nn1C)CSCc1cc(n(C)n1)CSc1cc(c3ccccc3c1)OCCCc1c(C(=O)O)n(C)c3c-2c(Cl)ccc13 [AZD5991] + CCN(CCO)CCCOc1ccc2c(Nc3cc(CC(=O)Nc4cccc(F)c4)[nH]n3)ncnc2c1 [AZD2811] (first compound max 1 µM, 7x7, partner max 1 µM)
3. CCN(CCO)CCCOc1ccc2c(Nc3cc(CC(=O)Nc4cccc(F)c4)[nH]n3)ncnc2c1 [AZD2811] + O=C(c1cc(Cc2n[nH]c(=O)c3ccccc23)ccc1F)N1CCN(C(=O)C2CC2)CC1 [Olaparib] (first compound max 1 µM, 7x7, partner max 10 µM)
4. Cc1nc(Nc2ncc(C(=O)Nc3c(C)cccc3Cl)s2)cc(N2CCN(CCO)CC2)n1 [Dasatinib] + CC(=O)Nc1cccc(-n2c(=O)n(C3CC3)c(=O)c3c(Nc4ccc(I)cc4F)n(C)c(=O)c(C)c32)c1 [Trametinib] (first compound max 2 µM, 7x7, partner max 1 µM)
5. CS(=O)(=O)CCNCc1ccc(-c2ccc3ncnc(Nc4ccc(OCc5cccc(F)c5)c(Cl)c4)c3c2)o1 [Lapatinib] + Cn1cnc2c(F)c(Nc3ccc(Br)cc3Cl)c(C(=O)NOCCO)cc21 [Selumetinib] (first compound max 10 µM, 7x7, partner max 10 µM)
6. Cc1c2c(nn1C)CSCc1cc(n(C)n1)CSc1cc(c3ccccc3c1)OCCCc1c(C(=O)O)n(C)c3c-2c(Cl)ccc13 [AZD5991] + C1CN(CCC1(C(=O)N[C@@H](CCO)C2=CC=C(C=C2)Cl)N)C3=NC=NC4=C3C=CN4 [Capivasertib] (first compound max 1 µM, 7x7, partner max 3 µM)

1. 1
2. 0.941
3. 0.974
4. 0.424
5. 0.501
6. 0.92
